Could you please report measured z-score for the items listed next?
Experiment: PSAC antagonists in infected red cells, primary screen, cell-based, P. falciparum Indochina, OD700, 1 h (AID 1154)
Details: P. falciparum Indochina infected RBC osmotic lysis, higher = more signal, called active from +8 up or from −8 down
API doc: respond with a numeric literal and nothing else, no unit.

Given CN1C(=O)C2C=CC(C(O)c3cccs3)N(Nc3ccccc3)C2C1=O (centres undefined) , respond with its z-score.
-0.203

Given `COCCn1c(C(=O)N2CCCC2)cc2c1C[C@H]1CN(C(=O)c3ccccc3)[C@@](Cc3ccc(F)cc3)(C(=O)OC)[C@@H]21` , respond with its z-score.
1.15

Given O=C1C2C=CC(C(O)C(c3ccccc3)c3ccccc3)N(n3cnnc3)C2C(=O)N1Cc1ccccc1 (centres undefined) , respond with its z-score.
2.36

Given `COCCOC(=O)N1C(=O)[C@@]2(c3cc(C#Cc4ccc(OC)cc4)ccc31)[C@H](C(N)=O)[C@H]1C(=O)O[C@H](c3ccccc3)[C@H](c3ccccc3)N1[C@@H]2c1ccccc1OCCO` , respond with its z-score.
4.42

----------
Biological target: E3 ubiquitin-protein ligase XIAP (Homo sapiens) (UniProt P98170)
Sequence (P98170 whole entry, looked up): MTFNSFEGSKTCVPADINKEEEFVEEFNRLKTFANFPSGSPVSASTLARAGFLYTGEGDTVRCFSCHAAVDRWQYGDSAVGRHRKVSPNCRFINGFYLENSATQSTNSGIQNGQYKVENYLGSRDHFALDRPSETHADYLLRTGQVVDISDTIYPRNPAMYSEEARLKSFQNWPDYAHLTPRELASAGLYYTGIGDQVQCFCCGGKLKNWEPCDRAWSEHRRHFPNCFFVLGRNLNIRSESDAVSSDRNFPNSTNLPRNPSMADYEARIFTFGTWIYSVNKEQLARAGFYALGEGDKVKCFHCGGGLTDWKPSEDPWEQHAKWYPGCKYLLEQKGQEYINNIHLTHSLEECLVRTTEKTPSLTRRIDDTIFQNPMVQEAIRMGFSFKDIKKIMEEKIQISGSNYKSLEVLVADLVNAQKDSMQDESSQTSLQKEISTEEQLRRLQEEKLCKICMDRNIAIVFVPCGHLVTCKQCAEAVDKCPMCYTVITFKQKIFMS
Experiment: XIAP binders, primary screen, biophysical, small-molecule microarray, fluorescence 635 nm (AID 1181);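 also: score merges 667 nm emission and signal to noise over triplicate slides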
Settings: small-molecule microarray binding, higher = more signal
Could you please report measured composite z-score for the items listed next?
API doc: respond with a numeric literal and nothing else, no unit.

Supply composite z-score measured with E3 ubiquitin-protein ligase XIAP (Homo sapiens) (UniProt P98170) for `COc1ccc([Si](C)(C)[C@H]2[C@H](CCn3cc([C@H](O)c4ccccc4)nn3)O[C@@]3(C(=O)N(Cc4cccc(N5CCOC5=O)c4)c4ccccc43)[C@@H]2C)cc1` .
-0.117

Supply composite z-score measured with E3 ubiquitin-protein ligase XIAP (Homo sapiens) (UniProt P98170) for `NC(=O)[C@@H]1[C@H]2C(=O)O[C@H](c3ccccc3)[C@H](c3ccccc3)N2[C@H](c2ccc(O)cc2)[C@@]12C(=O)Nc1ccc(C#CC3(O)CCCCCC3)cc12` .
-0.113

Supply composite z-score measured with E3 ubiquitin-protein ligase XIAP (Homo sapiens) (UniProt P98170) for `CC(=O)NCCCC[C@@H]1NC(=O)[C@@H]2C[C@H](C(=O)NCCCCN(C)C)[C@H](c3cccc(OCCO)c3)N2C1=O` .
-0.404

Supply composite z-score measured with E3 ubiquitin-protein ligase XIAP (Homo sapiens) (UniProt P98170) for `C#CCN(CC1=CCCCC1)[C@H](c1ccccc1Br)[C@@H](O)Cc1ccccc1` .
-0.209

Supply composite z-score measured with E3 ubiquitin-protein ligase XIAP (Homo sapiens) (UniProt P98170) for `COC(=O)C(CC#Cc1ccc2c(c1)[C@]1(C(=O)N2)[C@H](c2ccc(O)cc2)N2[C@H](c3ccccc3)[C@H](c3ccccc3)OC(=O)[C@H]2[C@@H]1C(=O)Nc1nc2ccccc2s1)C(=O)OC` .
-0.313

----------
Could you please report measured z-score for the items listed next?
Assay: CREB reporter modulators without forskolin, primary screen, cell-based, PC12, CRE-LacZ reporter, unstimulated (AID 1145)
Settings: no forskolin, luminescence, 4.5 h, higher = more signal, called active from +8 up or from −8 down
API doc: respond with a numeric literal and nothing else, no unit.

Given `COc1ccc(CCN2C(=O)[C@@]3(Cc4ccccc42)c2ccccc2C(=O)N(Cc2ccccc2C(F)(F)F)[C@H]3c2ccc(CO)cc2)cc1` , respond with its z-score.
-0.554

Given `O=C1O[C@@H](c2ccccc2)[C@@H](c2ccccc2)N2[C@@H](c3ccccc3OCCO)[C@]3(C(=O)Nc4ccc(C#CC5=CCCCC5)cc43)[C@@H](C(=O)Nc3nc4ccccc4s3)[C@H]12` , respond with its z-score.
-0.191

Given `COCCOC(=O)N1C(=O)[C@@]2(c3cc(C#CC4=CCCCC4)ccc31)[C@H](C(=O)Nc1nc3ccccc3s1)[C@H]1C(=O)O[C@H](c3ccccc3)[C@H](c3ccccc3)N1[C@@H]2c1ccc(OCCO)cc1` , respond with its z-score.
-0.258

Given `O=C1O[C@H](c2ccccc2)[C@H](c2ccccc2)N2[C@H]1[C@@H](C(=O)NC[C@H](O)c1ccccc1)[C@]1(C(=O)Nc3ccccc31)[C@H]2c1ccc(OCCO)cc1` , respond with its z-score.
-0.0784

Given `C=CCNC(=O)[C@@H]1[C@H]2C(=O)O[C@H](c3ccccc3)[C@H](c3ccccc3)N2[C@H](c2ccc(OCCO)cc2)[C@@]12C(=O)Nc1ccc(C#CCCO)cc12` , respond with its z-score.
-0.141

Given `CO[C@H]1O[C@H](CO)[C@@H](OC(=O)Nc2ccc(Br)cc2)[C@H](OC(=O)c2cc3ccccc3[nH]2)[C@H]1OC(=O)c1cc2ccccc2[nH]1` , respond with its z-score.
2.38

Given `[N-]=[N+]=NCc1ccccc1[C@@H]1OC(c2ccc(OCCCO)cc2)=N[C@]1(CCS(=O)(=O)c1ccccc1)C(=O)NCc1ccccc1` , respond with its z-score.
0.614

Given `C#CCN(CC=C(C)C)[C@H](CO)c1ccccc1` , respond with its z-score.
-0.153

Given `COC(=O)c1c(CC[C@@H](CO)NC(=O)N2CCC[C@H]2Cn2cc(-c3ccccn3)nn2)oc(C(C)=O)c1C(=O)OC` , respond with its z-score.
0.395

Given `[N-]=[N+]=NCc1ccccc1[C@H]1OC(c2ccc(OCCCO)cc2)=N[C@@]1(Cc1ccccc1)C(=O)NCc1ccccc1` , respond with its z-score.
-0.0108

Given O=C1OCCC/C=C\[C@H]2OC34C=CCN(Cn5nnc6ccccc65)C(=O)[C@H]3N(CCCCCCO)C(=O)[C@@H]4C12 (stereo partly drawn) , respond with its z-score.
-1.17

Given `C=CCOC(=O)[C@H]1[C@@H]2C(=O)O[C@@H](c3ccccc3)[C@@H](c3ccccc3)N2[C@@H](c2ccc(OCCOC(=O)[C@@H]3C[C@@H]4C(=O)N[C@@H](CCCC[N+](C)(C)C)C(=O)N4[C@@H]3c3ccc(O)cc3)cc2)[C@]12C(=O)Nc1ccccc12` , respond with its z-score.
-1.07

Given CCCCCN1CC=CC23O[C@@H]4/C=C\CCCOC(=O)C4[C@H]2C(=O)N(C(CO)C(C)C)[C@@H]3C1=O (stereo partly drawn) , respond with its z-score.
-0.899
